# Experimental Target: T1, IL-11 (UniProt P20809 22-199, limits assumed)
# T1 construct: also called IL-11 protein; IL-11 antigen
# T1 sequence (looked up): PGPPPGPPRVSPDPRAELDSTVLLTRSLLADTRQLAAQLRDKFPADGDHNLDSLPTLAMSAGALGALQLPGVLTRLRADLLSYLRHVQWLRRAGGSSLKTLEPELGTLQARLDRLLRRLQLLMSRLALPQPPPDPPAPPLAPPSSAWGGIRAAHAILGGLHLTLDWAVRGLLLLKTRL
# Experiment: SPR Biacore, scFv captured, IL-11 400 nM
# Experimental: The measure method included the steps of capturing the humanized single-chain antibody at a flow rate of 10 uL/min. […] Finally, the chip was regenerated with 10 mM glycine buffer.
Endpoint: koff (s⁻¹)
Could you give me the number in s⁻¹? Just the number is fine.

// solved cases for koff follow
>>> obs_value("“VH1+VL3”-scFv (scFv) scFv: QVQLVQSGAEVKKPGASVKVSCKASDYTFTNYWLGWVRQAPGQGLEWMGHIYPGGGYTNYNEKFKGRVTMTRDTSTSTVYMELSSLRSEDTAVYYCARVRSGNDALDFWGQGTLVTVSSGGGGSGGGGSGGGGSEIVLTQSPATLSLSPGERATLSCRASESVDEYGISFMNWFQQKPGQAPRLLIYSASNQGSGIPARFSGSGSGTDFTLTISSLEPEDFAVYFCQQSKEVPWTFGGGTKLEIK")
0.000436
>>> obs_value("“VH3+VL4”-scFv (scFv) scFv: QVQLVQSGAEVKKPGASVKVSCKASDYTFTNYWLGWVRQAPGQGLEWIGHIYPGGGYTNYNEKFKGRATLTADTSTSTVYMELSSLRSEDTAVYFCARVRSGNDALDFWGQGTLVTVSSGGGGSGGGGSGGGGSEIVLTQSPATLSLSPGERATLSCRASESVDEYGISFMNWFQQKPGQAPRLLIYSASNQGSGIPARFSGSGSGTDFTLTISSLEPEDFAMYFCQQSKEVPWTFGGGTKLEIK")
0.000556
>>> obs_value("“VH1+VL4”-scFv (scFv) scFv: QVQLVQSGAEVKKPGASVKVSCKASDYTFTNYWLGWVRQAPGQGLEWMGHIYPGGGYTNYNEKFKGRVTMTRDTSTSTVYMELSSLRSEDTAVYYCARVRSGNDALDFWGQGTLVTVSSGGGGSGGGGSGGGGSEIVLTQSPATLSLSPGERATLSCRASESVDEYGISFMNWFQQKPGQAPRLLIYSASNQGSGIPARFSGSGSGTDFTLTISSLEPEDFAMYFCQQSKEVPWTFGGGTKLEIK")
0.000387
>>> obs_value("“VH4+VL4”-scFv (scFv) scFv: QVQLVQSGAEVKKPGASVKVSCKASDYTFTNYWLGWVRQAPGHGLEWIGHIYPGGGYTNYNEKFKGRATLTADTSTSTVYMELSSLRSEDTAVYFCARVRSGNDALDFWGQGTLVTVSSGGGGSGGGGSGGGGSEIVLTQSPATLSLSPGERATLSCRASESVDEYGISFMNWFQQKPGQAPRLLIYSASNQGSGIPARFSGSGSGTDFTLTISSLEPEDFAMYFCQQSKEVPWTFGGGTKLEIK")
0.000481

Next binder, please.
// “VH2+VL2”-scFv (scFv) scFv: QVQLVQSGAEVKKPGASVKVSCKASDYTFTNYWLGWVRQAPGQGLEWIGHIYPGGGYTNYNEKFKGRVTMTADTSTSTVYMELSSLRSEDTAVYFCARVRSGNDALDFWGQGTLVTVSSGGGGSGGGGSGGGGSEIVLTQSPATLSLSPGERATLSCRASESVDEYGISFMNWYQQKPGQAPRLLIYSASNQGSGIPARFSGSGSGTDFTLTISSLEPEDFAVYFCQQSKEVPWTFGGGTKLEIK : koff value = 0.000812
